Where these numbers come from: paper PMC5733700

Collected ITC ΔG, BRD2 BD1 values appear next to each entry.
# targetSystem: BRD2-BD1 (74–194) (Homo sapiens)
# Sequence (P25440 74-194): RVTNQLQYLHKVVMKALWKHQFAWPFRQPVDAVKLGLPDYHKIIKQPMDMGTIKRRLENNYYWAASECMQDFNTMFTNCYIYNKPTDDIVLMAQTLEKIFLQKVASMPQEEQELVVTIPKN
# runDescription: Isothermal titration calorimetry
# Format: binding
# runConditions: 15 °C, no DMSO in buffer
measuredProperty: ITC ΔG, BRD2 BD1

- compound: "CC(=O)N1c2ccc(-c3ccc[nH]3)cc2[C@H](NC(=O)OC(C)C)C[C@@H]1C [Compound 11]"
  measuredProperty: "ITC ΔG, BRD2 BD1"
  valueReported: "-9.08 kcal/mol"
- compound: "CC(=O)N1c2ccc(-c3ccsc3)cc2[C@H](NC(=O)OC(C)C)C[C@@H]1C [Compound 13]"
  measuredProperty: "ITC ΔG, BRD2 BD1"
  valueReported: "-9.43 kcal/mol"
- compound: "CC(=O)N1c2ccc(-c3ccco3)cc2[C@H](NC(=O)OC(C)C)C[C@@H]1C [Compound 9]"
  measuredProperty: "ITC ΔG, BRD2 BD1"
  valueReported: "-7.47 kcal/mol"
- compound: "CC(=O)N1c2ccc(-c3ccoc3)cc2[C@H](NC(=O)OC(C)C)C[C@@H]1C [Compound 12]"
  measuredProperty: "ITC ΔG, BRD2 BD1"
  valueReported: "-8.96 kcal/mol"
- compound: "CC(=O)N1c2ccc(-c3cccs3)cc2[C@H](NC(=O)OC(C)C)C[C@@H]1C [Compound 10]"
  measuredProperty: "ITC ΔG, BRD2 BD1"
  valueReported: "-9.52 kcal/mol"
- compound: "CC(=O)N1c2ccc(-c3cc[nH]c3)cc2[C@H](NC(=O)OC(C)C)C[C@@H]1C [Compound 14]"
  measuredProperty: "ITC ΔG, BRD2 BD1"
  valueReported: "-9.28 kcal/mol"
